protein stability index listing for selected variants.
B1: BEX1 (parent)
chain: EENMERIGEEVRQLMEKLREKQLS

Variants of: B1
Assay: protein stability index of a GFP-peptide fusion (GPS, HEK-293T) (PSI 1-6); higher = more stable;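 also: lentivirally expressed fusions sorted by FACS into six bins by GFP to DsRed ratio, PSI derived from sequencing read proportions per bin multiplied by bin number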
Details: c terminus: a fixed tail appended
Answer with a number only.

Record excerpt, results attached:
E10A    3.09
Q13G    5.2
E2K    3.64
E2P    4.34
L23C    4.73

Per the records, this variant ( `L14V` ) has protein stability index equal to 4.97

Consider `G8W` . Its measured protein stability index is 3.44

# protein stability index of `K21T` = 5.02

response.value for `L23A` (field: protein stability index) = 4.63

The recorded protein stability index for entry `L18W` equals 4.84
